Tested on: 817829-284-R-J1-PDC complex spheroids, viability
procedure_summary: Anticancer human tumor 817829-284-R-J1-PDC patient-derived colon adenocarcinoma cell line growth inhibition [GQUAD]
experimental_context: second compound 1 µM; first compound 3.16 µM; active compounds read low
Quick list: viability, T/C per entry.
Express it in %; write the number only.

The following compounds have reported results that may help.
{"columns": ["compound", "subject_of_test", "u", "viability, T/C"],
 "data": [
  ["O=c1[nH]cc(F)c(=O)[nH]1 + Cc1cnc(CNC(=O)c2c(=O)c3ccc(N4CCCN(C)CC4)nc3n3c2sc2ccccc23)cn1", "817829-284-R-J1-PDC complex spheroids, viability", "%", 22.9],
  ["CC(=O)O[C@H]1C(=O)[C@@]2(C)[C@H]([C@H](OC(=O)c3ccccc3)[C@]3(O)C[C@H](OC(=O)[C@H](O)[C@@H](NC(=O)c4ccccc4)c4ccccc4)C(C)=C1C3(C)C)[C@]1(OC(C)=O)CO[C@@H]1C[C@@H]2O + Cc1cnc(CNC(=O)c2c(=O)c3ccc(N4CCCN(C)CC4)nc3n3c2sc2ccccc23)cn1", "817829-284-R-J1-PDC complex spheroids, viability", "%", 17.5],
  ["COc1cc(C2c3cc4c(cc3C(OC3OC5COC(C)OC5C(O)C3O)C3COC(=O)C23)OCO4)cc(OC)c1O (stereo not given) + Cc1[nH]c2ccc(F)cc2c1-c1nc2c3cccnc3c3ncccc3c2[nH]1", "817829-284-R-J1-PDC complex spheroids, viability", "%", 25.1],
  ["CC(C)n1c(=O)n(C)c2cnc3cc(F)c(-c4ccc(OCCCN5CCCCC5)nc4)cc3c21 + Cc1cnc(CNC(=O)c2c(=O)c3ccc(N4CCCN(C)CC4)nc3n3c2sc2ccccc23)cn1", "817829-284-R-J1-PDC complex spheroids, viability", "%", 24.2]
]}

Consider the record given below.
For the compound O=C(NO)c1cnc(N2CCN(S(=O)(=O)c3ccc4ccccc4c3)CC2)nc1 + CN(C)c1ccc(Nc2c3ccc(NC(=O)CCN4CCCC4)cc3nc3cc(NC(=O)CCN4CCCC4)ccc23)cc1 , what viability, T/C is on record? 0.1

====

Tested on: 817829-284-R-J1-PDC complex spheroids, viability
procedure_summary: Anticancer human tumor 817829-284-R-J1-PDC cell line growth inhibition [GQUAD];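 also: spheroids exposed to agents for 7 days before readout; percent viability relative to DMSO vehicle control taken as 100%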
experimental_context: second compound 1 µM; first compound 3.16 µM; active compounds read low
The label is Fulfilled for viability, T/C below 6% and Not fulfilled for viability, T/C equal to or exceeding 6%.

These solved cases illustrate the format of a correct answer.
{"columns": ["compound", "subject_of_test", "label"],
 "data": [
  ["O=C(c1cc(Cc2n[nH]c(=O)c3ccccc23)ccc1F)N1CCN(C(=O)C2CC2)CC1 + Cc1[nH]c2ccc(F)cc2c1-c1nc2c3cccnc3c3ncccc3c2[nH]1", "817829-284-R-J1-PDC complex spheroids, viability", "Not fulfilled"],
  ["COc1cccc2c1C(=O)c1c(O)c3c(c(O)c1C2=O)CC(O)(C(=O)CO)CC3OC1CC(N)C(O)C(C)O1 (stereo not given) + Cc1cnc(CNC(=O)c2c(=O)c3ccc(N4CCCN(C)CC4)nc3n3c2sc2ccccc23)cn1", "817829-284-R-J1-PDC complex spheroids, viability", "Fulfilled"],
  ["COc1cc(C2c3cc4c(cc3C(OC3OC5COC(C)OC5C(O)C3O)C3COC(=O)C23)OCO4)cc(OC)c1O (stereo not given) + Cc1cnc(CNC(=O)c2c(=O)c3ccc(N4CCCN(C)CC4)nc3n3c2sc2ccccc23)cn1", "817829-284-R-J1-PDC complex spheroids, viability", "Not fulfilled"],
  ["CC(=O)O[C@H]1C(=O)[C@@]2(C)[C@H]([C@H](OC(=O)c3ccccc3)[C@]3(O)C[C@H](OC(=O)[C@H](O)[C@@H](NC(=O)c4ccccc4)c4ccccc4)C(C)=C1C3(C)C)[C@]1(OC(C)=O)CO[C@@H]1C[C@@H]2O + Cc1[nH]c2ccc(F)cc2c1-c1nc2c3cccnc3c3ncccc3c2[nH]1", "817829-284-R-J1-PDC complex spheroids, viability", "Not fulfilled"],
  ["COc1ncnc(C2CC2)c1-c1ncc2cnn(Cc3ccc(-c4nc(C(F)(F)F)cn4C(C)C)cc3)c2n1 + CN(C)c1ccc(Nc2c3ccc(NC(=O)CCN4CCCC4)cc3nc3cc(NC(=O)CCN4CCCC4)ccc23)cc1", "817829-284-R-J1-PDC complex spheroids, viability", "Not fulfilled"],
  ["C=CCn1c(=O)c2cnc(Nc3ccc(N4CCN(C)CC4)cc3)nc2n1-c1cccc(C(C)(C)O)n1 + Cc1[nH]c2ccc(F)cc2c1-c1nc2c3cccnc3c3ncccc3c2[nH]1", "817829-284-R-J1-PDC complex spheroids, viability", "Not fulfilled"]
]}

For this compound, is viability, T/C lower than 6%? CC1COCCN1c1cc(-c2ccnn2C)c2ccnc(-c3ccn[nH]3)c2n1 (stereo not given) + CN(C)c1ccc(Nc2c3ccc(NC(=O)CCN4CCCC4)cc3nc3cc(NC(=O)CCN4CCCC4)ccc23)cc1 Not fulfilled

Determine whether this compound shows viability, T/C lower than 6% (ties excluded): O=C(NO)c1cnc(N2CCN(S(=O)(=O)c3ccc4ccccc4c3)CC2)nc1 + Cc1cnc(CNC(=O)c2c(=O)c3ccc(N4CCCN(C)CC4)nc3n3c2sc2ccccc23)cn1 Fulfilled

Regarding C=CC(=O)N1CCN(c2nc(=O)n(-c3c(C)ccnc3C(C)C)c3nc(-c4c(O)cccc4F)c(F)cc23)C(C)C1 (stereo not given) + Cc1cnc(CNC(=O)c2c(=O)c3ccc(N4CCCN(C)CC4)nc3n3c2sc2ccccc23)cn1 , kindly confirm whether its viability, T/C is beneath 6%. Not fulfilled

Just wondering, is viability, T/C of C#Cc1c(F)ccc2cc(O)cc(-c3ncc4c(N5CC6CCC(C5)N6)nc(OCC56CCCN5CC(F)C6)nc4c3F)c12 (stereo not given) + Cc1cnc(CNC(=O)c2c(=O)c3ccc(N4CCCN(C)CC4)nc3n3c2sc2ccccc23)cn1 below 6%? Not fulfilled

====

Tested on: 817829-284-R-J1-PDC complex spheroids, viability
procedure_summary: Anticancer human tumor 817829-284-R-J1-PDC cell line growth inhibition [GQUAD];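 also: spheroids exposed to agents for 7 days before readout; percent viability relative to DMSO vehicle control taken as 100%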
experimental_context: second compound 3.16 µM; first compound 3.16 µM; active compounds read low
Simple rule here: viability, T/C less than 70% is 1.0, otherwise 0.0.

{"columns": ["compound", "subject_of_test", "label"],
 "data": [
  ["CC(C)(O)C1CCC(Nc2ccc3ncc(-c4cccc(C(F)(F)F)c4)n3n2)CC1 (stereo not given) + CN(C)c1ccc(Nc2c3ccc(NC(=O)CCN4CCCC4)cc3nc3cc(NC(=O)CCN4CCCC4)ccc23)cc1", "817829-284-R-J1-PDC complex spheroids, viability", 1.0],
  ["CC1COCCN1c1cc(-c2ccnn2C)c2ccnc(-c3ccn[nH]3)c2n1 (stereo not given) + CN(C)c1ccc(Nc2c3ccc(NC(=O)CCN4CCCC4)cc3nc3cc(NC(=O)CCN4CCCC4)ccc23)cc1", "817829-284-R-J1-PDC complex spheroids, viability", 1.0],
  ["COc1ccc([C@@H](O)c2cc(-c3ncnc4cc(N5CCOCC5)ccc34)c(F)cc2Cl)nn1 + CN(C)c1ccc(Nc2c3ccc(NC(=O)CCN4CCCC4)cc3nc3cc(NC(=O)CCN4CCCC4)ccc23)cc1", "817829-284-R-J1-PDC complex spheroids, viability", 1.0]
]}

Next up:
Determine whether this compound shows viability, T/C lower than 70% (ties excluded): Cc1cccc(N(C)C(=O)C2C(O)CCN2c2nc(C)cc(C(F)(F)F)c2C#N)c1 (stereo not given) + Cc1[nH]c2ccc(F)cc2c1-c1nc2c3cccnc3c3ncccc3c2[nH]1 0.0

====

Test system: 817829-284-R-J1-PDC complex spheroids, viability
procedure_summary: Anticancer human tumor 817829-284-R-J1-PDC cell line growth inhibition [GQUAD];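 also: spheroids exposed to agents for 7 days before readout; percent viability relative to DMSO vehicle control taken as 100%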
experimental_context: second compound 0.1 µM; first compound 0.1 µM; active compounds read low
quantity_kind: viability, T/C

{"columns": ["compound", "endpoint_value"],
 "data": [
  ["COc1ncnc(C2CC2)c1-c1ncc2cnn(Cc3ccc(-c4nc(C(F)(F)F)cn4C(C)C)cc3)c2n1 + CN(C)c1ccc(Nc2c3ccc(NC(=O)CCN4CCCC4)cc3nc3cc(NC(=O)CCN4CCCC4)ccc23)cc1", "123%"]
]}

Entry under review: COc1cccc2c1C(=O)c1c(O)c3c(c(O)c1C2=O)CC(O)(C(=O)CO)CC3OC1CC(N)C(O)C(C)O1 (stereo not given) + Cc1cnc(CNC(=O)c2c(=O)c3ccc(N4CCCN(C)CC4)nc3n3c2sc2ccccc23)cn1 . Reported viability, T/C? 26.8%

Item under review: CC1COCCN1c1cc(C2(O)CC3CCC(C2)O3)c2cnn(-c3ccn[nH]3)c2n1 (stereo not given) + Cc1cnc(CNC(=O)c2c(=O)c3ccc(N4CCCN(C)CC4)nc3n3c2sc2ccccc23)cn1 . Reported viability, T/C? 10.7%

Tell me the measured viability, T/C of Nc1ccn(C2OC(CO)C(O)C2(F)F)c(=O)n1 (stereo not given) + Cc1cnc(CNC(=O)c2c(=O)c3ccc(N4CCCN(C)CC4)nc3n3c2sc2ccccc23)cn1 , please. 10.7%

Looking for the measured viability, T/C of COc1cc(C2c3cc4c(cc3C(OC3OC5COC(C)OC5C(O)C3O)C3COC(=O)C23)OCO4)cc(OC)c1O (stereo not given) + CN(C)c1ccc(Nc2c3ccc(NC(=O)CCN4CCCC4)cc3nc3cc(NC(=O)CCN4CCCC4)ccc23)cc1 , can you help? 88.6%
